Assay: Cytotoxicity in human PBMCs (XTT)
Type: cell-based
Conditions: PHA-P stimulated PBMCs pooled from three donors; human PBMCs, XTT
Measure name: CC50 at 7 days

IN: Identify the reported CC50 at 7 days for the following entry. Cc1cn([C@H]2C[C@H](N=[N+]=[N-])[C@@H](CO)O2)c(=O)[nH]c1=O [AZT, Zidovudine, reference compound]
OUT: > 1 µM
